# System: A549/ATCC NSCLC
# PROTOCOL: NCI-60 one-dose screen, 48 h (100 = growth as untreated, 0 = no growth, -100 = all killed)
# TEST_PARAMETERS: 10 µM unless noted
The panel holds about 83,000 compounds, 20% with a hit somewhere; the sample as a whole holds those more often.
Form field: growth (one value per entry).
Return type: number; implicit unit %.

Known growth results, listed for orientation:
- C=C1C(=O)O[C@H]2[C@H]1CC/C(COC(=O)NCc1c[nH]c3ccc(Br)cc13)=C\CC[C@@]1(C)O[C@@H]21: 49.1
- COc1ccc(/C=C2\COc3ccc(-c4ccccc4)cc3C2=O)c(OC)c1: 90.9
- COc1ccc(CC(C)=C(c2ccc(OCCN3CCCCCC3)cc2)c2ccc(OCCN3CCCCCC3)cc2)cc1: -86
- COc1ccc(C(=O)C2C(C#N)C(C#N)C3c4ccccc4C=CN23)cc1 (configuration not stated): 87.2
- COc1ccc(C(=O)CSc2nc(-c3cc(OC)ccc3OC)cc(-c3ccc(Cl)cc3)c2C#N)cc1: 56.5
- O=S(=O)(NCCNc1nccc(-c2c(-c3cccc(O)c3)nc3occn23)n1)c1ccc(Cl)cc1: 101
- OCc1cnc2ccccc2c1NC1CCCCCC1: 84.6
- Cc1cnc(C(=O)Nc2nc3ccc(S(=O)(=O)Nc4ccc(C5(C(F)(F)F)CC5)cc4)cc3[nH]2)cn1: 23.7

So for COc1ccc2nc(-c3ccc(-c4noc(-c5cc(OC)c(OC)c(OC)c5)n4)cc3)[nH]c2c1 , the logged growth turned out to be 45.8

The molecule identified as COCc1cnccc1NC1CCCCCC1 registered its growth at 96.3

Lab book: growth of CCCOC(=O)N[C@H]1CCc2cc(OC)c(OC)c(OC)c2-c2ccc(SC)c(=O)cc21 noted as 22.6

The recorded growth for CN1CCN(c2ccc(NC3=C(Cl)C(=O)c4ncccc4C3=O)cc2C(F)(F)F)CC1 is 104

For O=c1[nH]nc(-c2ccccc2)c2sc3ncc(-c4ccc(Br)cc4)n3c12 the molecule record lists growth as 82.9

Record summary for O=C1c2ccc3c4c(ccc(c24)C(=O)N1CCCNCc1ccccc1)C(=O)N(CCCNCc1ccccc1)C3=O : reported growth = -91.1

Recorded result, N#C/C(=C\c1cccc(C#N)c1)c1ccccc1 , growth: 88.8

Record COC(=O)/C=C1\S/C(=N\NC(=O)c2cc3ccc2/C=C\c2ccc(cc2)/C=C\3)N(c2ccccc2)C1=O , field growth: 69.1

growth reported for this molecule Nc1ccccc1NC(=O)c1ccc(-n2nc(-c3ccccc3)c3ccccc32)cc1 : 74.5

Please fill in: growth reported for CNC(=O)c1cc(Cn2nc(C)c(NC(=O)Nc3ccc(Cl)c(C(F)(F)F)c3)c2C)ccn1 = 70

Note to self: growth recorded for CCOC(=O)Oc1c(OC)cc(C(=O)c2ccc(OC)c(OC(=O)CCl)c2OC)cc1OC was 22.9

====

# growth annotations
# Test system: NCI-H23 lung
# PROTOCOL: NCI-60 one-dose screen, 48 h (100 = growth as untreated, 0 = no growth, -100 = all killed)
# TEST_PARAMETERS: 10 µM unless noted
This is part of a sample that, as a whole, favours compounds with a hit. Of some 83,000 tested, about 20% had one in any assay. The source made the active and inactive calls. Rule for the calls: active = growth percent below 10; inactive = the rest.

• COc1ccc(-c2nc([C@@H](C)Sc3nc(N)cc(N)n3)c(C)s2)cc1OCCN1CCOCC1 = 103% (inactive)
• O=C(/C=C(/C=C/c1csc2ccccc12)OB(F)F)/C=C/c1csc2ccccc12 = 23% (inactive)
• CN[C@@H](C)C(=O)N[C@H]1CCS[C@H]2CC(C)(C)[C@@H](C(=O)N[C@H]3c4ccccc4C[C@H]3OCC#CC#CCO[C@@H]3Cc4ccccc4[C@@H]3NC(=O)[C@H]3N4C(=O)[C@@H](NC(=O)[C@H](C)NC)CCS[C@H]4CC3(C)C)N2C1=O = 57.6% (inactive)
• O=S(=O)(NCCNc1nccc(-c2c(-c3cccc(F)c3)nc3sccn23)n1)c1ccc(Cl)cc1 = 74.9% (inactive)
• CC1(C)NCCC[C@]2(C)[C@H]3CC(=O)[C@H]4[C@@H]5C[C@](C)(CO)CC[C@]5(C)CC[C@@]4(C)[C@]3(C)CC[C@@H]12 = 104% (inactive)
• Cc1nc2ccc(Cl)cn2c1-c1nnc(SCc2ccc([N+](=O)[O-])cc2)o1 = 55.9% (inactive)
• CN(CCN(C)c1ccc(C(=N)N)cc1)c1ccc(C(=N)N)cc1 = 86.3% (inactive)
• CC(Oc1ccc(C(=O)O)cc1C(F)(F)F)c1ccc(Oc2ccccc2)cn1 (stereo not drawn) = 98.6% (inactive)
• CC(=O)c1cc2c(N)c(C(=O)Nc3cccc4ccncc34)sc2nc1C = 102% (inactive)
• NC(=O)CSSCC(N)=O = 99.2% (inactive)

Per the records, this compound ( COc1ccc2[nH]c(=O)c(CN3CCN(c4nccc(-c5ccc(Cl)cc5)n4)CC3)cc2c1 ) has growth equal to 91.2% (inactive)

The recorded growth for NC(=NCc1ccccc1)C(N=Nc1ccccc1)C(=O)NCc1ccccc1 (stereo not drawn) is 65.3% (inactive)

CCOC(=O)CSc1nc2ccccc2c(=O)n1Cc1ccc(S(N)(=O)=O)cc1 has a reported growth of 98% (inactive)

====

# Tested on: U251 CNS
# PROTOCOL: NCI-60 one-dose screen, 48 h (100 = growth as untreated, 0 = no growth, -100 = all killed)
# TEST_PARAMETERS: 10 µM unless noted
The panel holds about 83,000 compounds, 20% with a hit somewhere; the sample as a whole holds those more often.
Would you mind classing the entries by growth? Ranges: lo: < 50%; mid: ≥ 50% and < 90%; hi: ≥ 90%

• NC(=S)N1N=C(c2ccccc2)CC1c1cn(-c2ccccc2)nc1-c1ccc(OCc2ccccc2)cc1 (configuration not stated) = hi

Incoming: For this molecule, which bin applies? COC(=O)c1ccc2c(c1)[n+](=O)c(C(C)=O)c(C(F)(F)F)n2[O-]
Outgoing: lo

Incoming: Which growth category applies to CN1CCC(=C(c2ccccc2)c2ccccc2)C(c2ccccc2)C1 (configuration not stated) here?
Outgoing: hi

Incoming: Sort N#Cc1c(-c2cccc([N+](=O)[O-])c2)nc(SCC(=O)c2ccc(Cl)cc2)[nH]c1=O into one of the categories.
Outgoing: hi

Incoming: Class? Entry: Cc1cc2nc3c4cc(C=O)ccc4n(CCN(C)C)c3nc2cc1C
Outgoing: lo

Incoming: Band for Cc1cc2nc3c4ccc(Br)cc4n(CCN(C)C)c3nc2cc1C ?
Outgoing: lo

Incoming: Hello team, could you let me know which band the following molecule falls into: CC(=O)[C@H]1CCC/C=C/[C@@H]2C[C@H](O)C[C@H]2[C@H](O)/C=C/C(=O)O1
Outgoing: lo

Incoming: Could you place Cc1ccc(NS(=O)(=O)c2ccc(-c3cnc(C4CC4)o3)cc2)cc1C(F)(F)F in its proper category? Many thanks.
Outgoing: mid

====

# Tested on: NCI-H522 lung
# PROTOCOL: NCI-60 one-dose screen, 48 h
# TEST_PARAMETERS: 10 µM unless noted
This is part of a sample that, as a whole, favours compounds with a hit. Of some 83,000 tested, about 20% had one in any assay. The source made the active and inactive calls. Rule for the calls: active = growth percent below 10; inactive = the rest.
Use one of these outcomes when replying: TRUE for active, FALSE for inactive

Reference set (3 entries):
- O=C(O)c1ccc(NCc2cn(-c3ccc(C(F)(F)F)cc3)nc2-c2ccc(C(=O)O)cc2)cc1: FALSE
- N#CC1=C(N)Oc2c(cnn2-c2ccc([N+](=O)[O-])cc2[N+](=O)[O-])C1c1ccccc1 (stereo not given): FALSE
- O=C(Cn1c(C(=O)c2ccccc2)nc2ccccc21)c1ccc(F)cc1: TRUE

Incoming: What did this assay record as the result for COc1cc2cc(CN3CCN(c4nccc(-c5ccc6ccccc6c5)n4)CC3)c(=O)[nH]c2cc1OC ?
Outgoing: FALSE

====

# Tested on: CCRF-CEM leukemia
# PROTOCOL: NCI-60 one-dose screen, 48 h
# TEST_PARAMETERS: 10 µM unless noted
About 83,000 compounds went through this panel and 20% of them were active in at least one assay; those are over-represented in the sample as a whole. The source made the active and inactive calls. How the source made its calls: active means growth percent below 10; inactive means the rest.
Tick one outcome: yes (active), no (inactive)

Take a look at these entries with their results.
* c1ccc2c(-c3c[nH]c4ccccc34)c3c(cc2c1)[nH]c1ccccc13 | no
* N#Cc1c(-c2ccccc2)nc2c(c(-c3ccccc3)nn2-c2ccccc2)c1-c1ccc(O)cc1 | no
* Nc1n[nH]c2cccc(C#Cc3cccc(C(=O)Nc4cccc(C(F)(F)F)c4)c3)c12 | no
* COc1cc(/C=N/O)nc(-c2ccccn2)c1 | yes

Incoming: What was the test verdict on CN(C)CCC(=O)c1ccc([N+](=O)[O-])cc1 ?
Outgoing: no
